These entries and their values trace back to paper PMC6925144.

Assayed System: NAD-dependent deacetylase Sirtuin 1 (human)
Sequence (Q96EB6 2-747 limits assumed): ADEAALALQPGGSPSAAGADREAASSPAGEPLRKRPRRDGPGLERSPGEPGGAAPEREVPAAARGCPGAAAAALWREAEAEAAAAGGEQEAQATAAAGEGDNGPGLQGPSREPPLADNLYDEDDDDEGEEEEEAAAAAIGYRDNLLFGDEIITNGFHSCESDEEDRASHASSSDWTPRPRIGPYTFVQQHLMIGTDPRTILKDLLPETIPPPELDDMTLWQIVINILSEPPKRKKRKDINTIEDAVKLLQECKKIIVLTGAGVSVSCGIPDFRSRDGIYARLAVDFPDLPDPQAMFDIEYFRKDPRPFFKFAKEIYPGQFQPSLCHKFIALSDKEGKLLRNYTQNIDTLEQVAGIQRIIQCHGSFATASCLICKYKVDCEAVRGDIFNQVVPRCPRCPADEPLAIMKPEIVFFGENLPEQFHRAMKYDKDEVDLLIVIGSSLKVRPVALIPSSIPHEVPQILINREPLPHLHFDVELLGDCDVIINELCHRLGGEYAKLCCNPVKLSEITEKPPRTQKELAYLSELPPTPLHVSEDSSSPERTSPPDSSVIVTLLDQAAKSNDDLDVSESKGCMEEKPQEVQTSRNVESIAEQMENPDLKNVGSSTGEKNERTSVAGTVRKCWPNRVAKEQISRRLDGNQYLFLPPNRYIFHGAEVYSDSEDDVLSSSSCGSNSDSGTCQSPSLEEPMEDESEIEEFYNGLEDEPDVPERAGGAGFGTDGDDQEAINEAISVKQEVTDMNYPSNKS
Experiment Summary: primary screen, delta tm
Set-up: single well (n = 1, as 'the same TSA')
Setup Conditions: 10 µM
Protocol: A total of 3,192 compounds extracted from the proposed lists were first screened by thermal shift assay (TSA), which determined a melting temperature shift (ΔTm) of Sirtuin 1 upon the addition of a test compound at a concentration of 10 µM (n = 1) with primary hit criteria of ΔTm > 0.45 K or ΔTm < −1.5 K. Primary hits (48 compounds) were retested in the same assay at three concentrations (5, 10, 20 µM, n = 4) for hit confirmation and for dose-dependency check. […]
The full ranking holds about 3,200 compounds; the median of “TSA(with NAD+) / Primary screening (TSA) / delta Tm (K)” is about -0.04, and the highest 2% start at about 0.37. The sample as a whole holds a higher share of the highest values than the screen did.
# label = T if TSA(with NAD+) / Primary screening (TSA) / delta Tm (K) >= -0.09 K else F

CN(C)c1ccc(S(N)(=O)=O)cc1N; T
CN(c1ccccc1)S(=O)(=O)c1ccc(C(=O)Nc2cccc(S(=O)(=O)N3CCOCC3)c2)cc1; T
O=C(Nc1cccc(S(=O)(=O)N2CCOCC2)c1)C(c1ccccc1)c1ccccc1; T
O=C(Nc1cccc(S(=O)(=O)N2CCOCC2)c1)c1cn(-c2ccccc2)nc1-c1ccc(Cl)cc1; T

Now take the following molecule into account.
## Input // inclusive: TSA(with NAD+) / Primary screening (TSA) / delta Tm (K) at least -0.09 K? input: CCCN1CCN(CCCOc2ccccc2)CC1
## Output F
